Assayed Target: Chromo domain-containing protein 1 (Saccharomyces cerevisiae (strain ATCC 204508 / S288c) (Baker's yeast)) (UniProt P32657)
Sequence (P32657 whole entry, the tested form may be a part): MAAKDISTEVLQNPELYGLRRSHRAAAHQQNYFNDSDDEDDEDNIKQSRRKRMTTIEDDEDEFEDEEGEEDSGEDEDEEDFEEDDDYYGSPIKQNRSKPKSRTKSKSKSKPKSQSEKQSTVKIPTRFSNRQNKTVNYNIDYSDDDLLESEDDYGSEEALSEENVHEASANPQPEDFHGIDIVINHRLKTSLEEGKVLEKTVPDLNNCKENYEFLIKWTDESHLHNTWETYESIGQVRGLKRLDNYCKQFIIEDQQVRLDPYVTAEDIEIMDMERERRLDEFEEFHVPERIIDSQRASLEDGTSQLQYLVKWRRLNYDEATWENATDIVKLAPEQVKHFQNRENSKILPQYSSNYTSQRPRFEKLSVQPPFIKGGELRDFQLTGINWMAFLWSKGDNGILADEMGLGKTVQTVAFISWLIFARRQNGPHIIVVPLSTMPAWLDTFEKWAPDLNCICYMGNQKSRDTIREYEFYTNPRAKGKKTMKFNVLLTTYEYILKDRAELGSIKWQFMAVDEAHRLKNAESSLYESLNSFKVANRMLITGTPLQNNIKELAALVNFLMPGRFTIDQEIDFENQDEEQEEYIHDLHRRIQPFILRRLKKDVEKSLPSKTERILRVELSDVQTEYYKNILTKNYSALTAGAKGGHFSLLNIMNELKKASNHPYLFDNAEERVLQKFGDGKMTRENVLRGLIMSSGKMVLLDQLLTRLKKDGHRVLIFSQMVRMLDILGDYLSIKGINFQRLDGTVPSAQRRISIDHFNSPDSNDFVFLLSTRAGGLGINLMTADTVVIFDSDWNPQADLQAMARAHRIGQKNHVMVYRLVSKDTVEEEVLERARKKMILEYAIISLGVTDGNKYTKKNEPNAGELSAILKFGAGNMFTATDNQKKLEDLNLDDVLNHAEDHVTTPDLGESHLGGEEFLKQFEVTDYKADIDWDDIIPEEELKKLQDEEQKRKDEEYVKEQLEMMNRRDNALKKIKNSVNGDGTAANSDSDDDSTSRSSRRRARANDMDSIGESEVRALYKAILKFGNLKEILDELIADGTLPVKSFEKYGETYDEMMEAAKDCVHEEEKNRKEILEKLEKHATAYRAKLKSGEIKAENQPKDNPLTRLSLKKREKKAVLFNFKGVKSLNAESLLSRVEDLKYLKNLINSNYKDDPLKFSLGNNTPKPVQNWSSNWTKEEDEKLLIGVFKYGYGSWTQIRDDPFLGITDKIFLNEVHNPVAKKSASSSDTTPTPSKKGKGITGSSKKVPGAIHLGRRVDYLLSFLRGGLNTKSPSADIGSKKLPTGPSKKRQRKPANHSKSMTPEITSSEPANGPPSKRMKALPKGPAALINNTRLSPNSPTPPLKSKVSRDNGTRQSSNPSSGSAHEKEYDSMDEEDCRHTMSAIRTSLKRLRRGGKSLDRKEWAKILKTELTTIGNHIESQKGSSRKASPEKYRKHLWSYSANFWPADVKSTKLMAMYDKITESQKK
Run Description: ScCHD-1 Enzyme Inhibition Assay; also: in the data most compounds retested in dose-response had high values
Format: functional
Parameters: scale not given: direction of the effect not stated beside the values
Particulars: 30 µM
For each entry below, report its Percent Effect value.
Give bare numbers, in %.

# example entries with known answers
NC(=O)C1CCN(C(=O)c2cccc(CN3CCOCC3)c2)CC1 :: 79
CC(C)CNC(=O)NC(=O)CNc1ccccc1SCC(C)C#N (stereo unspecified) :: -5.23
CN(C)C(=O)N[C@@H]1CN(Cc2ccc3c(c2)OCO3)[C@@H]2CCCO[C@@H]21 :: -5.44
CN1CCN(C(=O)c2cccc(OCc3cscn3)c2)CC1 :: 5.6
CC(C)N(Cc1nc2c(cnn2C)c(=O)[nH]1)c1ccccc1 :: -3.23

Now examine the next entry.
Percent Effect lookup needed for "CC(C)c1cccc(CSc2nnc(CN3CCCC3=O)o2)n1" , thanks.
0.138

---

Tested on: Trypanosoma cruzi
Run Description: Trypanosoma cruzi phosphomannomutase and mannose-1-phosphate guanylyltransferase assay
Format: functional
Set-up: scale not given: direction of the effect not stated beside the values
Particulars: 10 µM
Please respond with reported Percent Effect for every item in the list.
One number for each entry, in %.

Provide each entry's Percent Effect from the list below.
1. COCC(=O)N(C)Cc1ccc(Cl)c(Cl)c1
2. CC(C)CN1CCC(NC(=O)c2ccc(F)cc2I)CC1
3. Cc1cc(CC(=O)NCc2ccnc(OCC(F)(F)F)c2)no1
4. O=C(NCCNC(=O)c1scnc1Cl)c1ccccc1

[-3.21, 7.48, -6.2, 2.01]

For every item below, please supply its Percent Effect.
1. CC(C)C(C)NC(=O)Nc1ccc(CS(C)(=O)=O)cc1 (configuration not stated)
2. Cc1nc(N2CCN(C)CC2)ncc1C(=O)N1CCC(O)(CO)CC1
3. Cc1cncc(C2CCCN(C(=O)c3ccc(C)[nH]c3=O)C2)n1 (configuration not stated)

4.77
2.25
1.58

Dear colleague, could you please provide Percent Effect for the compounds listed below?
1. COc1cc(CN(C)C(=O)Nc2cc(C)on2)ccc1SC
2. Cc1nc(C)n(CC2CCCN(c3ncnc4c3CCC4)C2)n1 (configuration not stated)
3. COCCc1noc(CN2CCCCC2Cn2cc(C)cn2)n1 (configuration not stated)
4. COc1c(C)cnc(CN2CCC(C(=O)N(C)C)CC2)c1C
5. Cn1ccnc1CN1CCN(Cc2noc(-c3ccccc3)n2)CC1

[-2.73, -4.25, 3.85, 2.81, -6.02]

---

Assayed Target: Tyrosyl-tRNA synthetase, putative (Trypanosoma cruzi (strain CL Brener)) (UniProt Q4DSP6)
Sequence (Q4DSP6 as listed by the source): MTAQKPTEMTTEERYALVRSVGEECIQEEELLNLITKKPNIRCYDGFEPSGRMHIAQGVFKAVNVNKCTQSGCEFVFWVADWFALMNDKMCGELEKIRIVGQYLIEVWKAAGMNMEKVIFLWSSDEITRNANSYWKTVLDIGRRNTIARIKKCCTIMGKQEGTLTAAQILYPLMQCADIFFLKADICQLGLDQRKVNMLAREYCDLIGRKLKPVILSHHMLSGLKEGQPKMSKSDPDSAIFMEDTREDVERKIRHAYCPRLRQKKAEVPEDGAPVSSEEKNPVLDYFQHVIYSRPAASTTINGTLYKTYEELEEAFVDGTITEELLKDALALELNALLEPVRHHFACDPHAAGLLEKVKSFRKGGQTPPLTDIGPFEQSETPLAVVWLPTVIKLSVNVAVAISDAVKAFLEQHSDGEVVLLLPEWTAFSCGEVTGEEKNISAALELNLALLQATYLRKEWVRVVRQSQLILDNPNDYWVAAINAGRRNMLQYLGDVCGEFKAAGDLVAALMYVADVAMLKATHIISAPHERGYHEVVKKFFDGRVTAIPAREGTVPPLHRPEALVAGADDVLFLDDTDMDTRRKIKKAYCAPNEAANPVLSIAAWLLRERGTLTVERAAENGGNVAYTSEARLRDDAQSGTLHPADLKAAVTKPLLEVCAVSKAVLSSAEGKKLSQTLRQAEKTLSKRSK
Run Description: Trypanosoma cruzi tyrosyl tRNA synthetase (TcYRS) SOP
Type: functional
Design: scale not given: direction of the effect not stated beside the values
Particulars: 30 µM
Returns: string. Value is Condition met if measured Percent Effect is below 20%, and Condition not met if it is greater than or equal to it.

Some entries whose results are on file:
COCCO[C@H]1CCN(C(=O)c2ccc[nH]2)[C@H]1Cc1ccncc1 :: Condition met
Cc1ccc(CNC(CN2CCN(C)CC2)c2ccccc2)cc1 (stereo unspecified) :: Condition met
CC(C)(C)c1ncc2c(n1)CN(C(=O)c1ccc(-c3nc[nH]n3)cc1)C2 :: Condition not met

hey, is Percent Effect for c1cncc(N2CCOCC3(CCCN(c4nncs4)C3)C2)c1 (stereo unspecified) lower than 20% or not?
Condition met
